Kindly state inhibition at 1000 µM for each of the entries shown.
- Target system: PfCRT^Ecu1110 (Plasmodium falciparum, UniProt Q9N623, A220S/I356L/K76T/N326D)
- Sequence (Q9N623 whole entry A220S/I356L/K76T/N326D): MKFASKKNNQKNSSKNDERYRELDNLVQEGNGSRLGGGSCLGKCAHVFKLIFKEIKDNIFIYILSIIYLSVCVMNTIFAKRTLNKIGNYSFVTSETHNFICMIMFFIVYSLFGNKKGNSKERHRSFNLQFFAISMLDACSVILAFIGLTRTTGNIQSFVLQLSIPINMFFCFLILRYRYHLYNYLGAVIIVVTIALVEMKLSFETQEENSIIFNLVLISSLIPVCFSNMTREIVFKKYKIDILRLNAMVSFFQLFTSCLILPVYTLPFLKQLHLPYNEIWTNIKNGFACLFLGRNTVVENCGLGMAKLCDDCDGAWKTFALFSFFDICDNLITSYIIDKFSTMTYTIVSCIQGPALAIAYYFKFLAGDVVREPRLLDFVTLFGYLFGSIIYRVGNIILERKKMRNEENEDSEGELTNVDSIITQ
- Method notes: [3H]CQ uptake into Xenopus oocytes, cis-inhibition by unlabelled solute
- Type: cell-based
- Assay setup: read-out: PfCRT-mediated [3H]CQ transport, cis-inhibition (% PfCRTEcu1110 control)
Give bare numbers, in %.

Example cases with answers are listed next.
# Compound, Scale unit, inhibition at 1000 µM
rows = [
    ("N[C@@H](CS)C(=O)O [L-cysteine]", "%", 87),
    ("NCCCC[C@H](N)C(=O)O [L-lysine]", "%", 97),
    ("O=C(O)[C@@H]1CCCN1 [L-proline]", "%", 94),
    ("N[C@@H](Cc1c[nH]cn1)C(=O)O [L-histidine]", "%", 94),
    ("CC[C@H](C)[C@H](N)C(=O)O [L-isoleucine]", "%", 98),
]

Record inhibition at 1000 µM per entry; entries follow.
1. CC(C)[C@H](N)C(=O)O [L-valine]
2. C[C@H](N)C(=O)O [L-alanine]
3. CC(C)C[C@H](N)C(=O)O [L-leucine]
4. NC(=O)CC[C@H](N)C(=O)O [L-glutamine]

1. 95
2. 95
3. 97
4. 95

Record inhibition at 1000 µM per entry; entries follow.
1. N[C@@H](Cc1c[nH]c2ccccc12)C(=O)O [L-tryptophan]
2. N[C@@H](CO)C(=O)O [L-serine]
3. N=C(N)NCCC[C@H](N)C(=O)O [L-arginine]

1: 95; 2: 97; 3: 95
